experiment: Pharmacokinetic studies of the prodrugs of probucol in rats (oral gavage, plasma LC/MS/MS); assay type: in vivo; conditions: male, Sprague Dawley, rat, 20 mg/kg prodrug by oral gavage, overnight fasting, analyte: prodrug, read-out: tmax of the prodrug in blood
Below: a set of entries, each annotated with reported Tmax.
Your answer is read as h, so omit the unit and give the number.

CCOC(=O)OCOc1c(C(C)(C)C)cc(SC(C)(C)Sc2cc(C(C)(C)C)c(O)c(C(C)(C)C)c2)cc1C(C)(C)C ... 2.17

Q: Name the reported Tmax value associated with the compound CCOC(=O)OC(C)Oc1c(C(C)(C)C)cc(SC(C)(C)Sc2cc(C(C)(C)C)c(O)c(C(C)(C)C)c2)cc1C(C)(C)C (centres unmarked)
Result: 2.37

====

experiment: Pharmacokinetic studies of the prodrugs of probucol in rats (oral gavage, plasma LC/MS/MS); format: in vivo; conditions: male, Sprague Dawley, rat, 20 mg/kg prodrug by oral gavage, overnight fasting, analyte: prodrug, read-out: AUC0-t of the prodrug in blood
Below: a set of entries, each annotated with reported AUC(0-t).
Your answer is read as ng·h/mL, so omit the unit and give the number.

CCOC(=O)OC(C)Oc1c(C(C)(C)C)cc(SC(C)(C)Sc2cc(C(C)(C)C)c(O)c(C(C)(C)C)c2)cc1C(C)(C)C (centres unmarked) ... 1070

Q: Name the reported AUC(0-t) value associated with the compound CCOC(=O)OCOc1c(C(C)(C)C)cc(SC(C)(C)Sc2cc(C(C)(C)C)c(O)c(C(C)(C)C)c2)cc1C(C)(C)C
Result: 758
